Reference source: patent US20100028340A1

Target: T1, recombinant purified human RGM A (R&D Systems Cat# 2459-RM) (human) (UniProt Q96B86)
T1 sequence: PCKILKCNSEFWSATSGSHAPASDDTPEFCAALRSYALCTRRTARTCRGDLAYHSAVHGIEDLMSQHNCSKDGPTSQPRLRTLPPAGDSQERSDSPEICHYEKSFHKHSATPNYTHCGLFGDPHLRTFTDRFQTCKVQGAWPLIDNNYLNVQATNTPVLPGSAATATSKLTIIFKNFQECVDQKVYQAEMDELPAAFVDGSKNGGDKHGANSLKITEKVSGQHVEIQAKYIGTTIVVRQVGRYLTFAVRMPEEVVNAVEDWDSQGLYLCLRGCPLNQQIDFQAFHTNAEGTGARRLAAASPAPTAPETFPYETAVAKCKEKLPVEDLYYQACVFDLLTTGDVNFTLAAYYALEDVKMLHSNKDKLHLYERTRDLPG
Test: SPR (Biacore 3000), antibody captured by anti-human IgG Fc, hRGMA in solution, 25 °C
// values below are reported koff
property name: koff (s⁻¹)

>>> data_value("h5F9.21 (antibody, human IgG1, V domains shown) VH: EVQLVESGGGVVQPGRSLRLSCAASGFTFSNYGMNWIRQAPGKGLEWIGMIYYDSSEKHYADSVKGRFTISRDNSKNTLYLQMNSLRAEDTAVYYCAKGTTPDYWGQGTMVTVSS VL: DVVLTQSPLSLPVTLGQPASISCRSSQSLEYSDGYTFLEWFLQKPGQSPQLLIYEVSNRFSGVPDRFSGSGSGTDFTLKISRVEAEDVGVYYCFQATHDPLTFGQGTKLEIKR")
0.00269
>>> data_value("chimeric 5F9 (antibody, V domains shown) VH: EVQLVESGGGLVQPGSSLKLSCVASGFTFSNYGMNWIRQAPKKGLEWIGMIYYDSSEKHYADSVKGRFTISRDNSKNTLYLEMNSLRSEDTAIYYCAKGTTPDYWGQGVMVTVSS VL: DVVLTQTPVSLSVTLGDQASMSCRSSQSLEYSDGYTFLEWFLQKPGQSPQLLIYEVSNRFSGVPDRFIGSGSGTDFTLKISRVEPEDLGVYYCFQATHDPLTFGSGTKLEIKR")
0.00236
>>> data_value("h5F9.23 (antibody, human IgG1, V domains shown) VH: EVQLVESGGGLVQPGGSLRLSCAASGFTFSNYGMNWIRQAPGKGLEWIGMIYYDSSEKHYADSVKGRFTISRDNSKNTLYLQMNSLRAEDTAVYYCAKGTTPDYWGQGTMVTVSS VL: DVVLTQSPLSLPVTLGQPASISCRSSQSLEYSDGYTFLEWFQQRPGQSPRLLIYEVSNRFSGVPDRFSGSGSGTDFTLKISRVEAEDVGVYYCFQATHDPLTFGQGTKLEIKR")
0.00221
